The reported numbers originate from the supplement of paper PMC9112550.

Tested on: Escherichia coli TOP10;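 further: peptides expressed intracellularly from a pBAD plasmid library in pooled LB shake-flask culture, induced with 0.3% L-arabinose, DNA abundance read by NGS, three biological replicates, DESeq2 with apeglm shrinkage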
test.method.notes: shrunken log2 fold change of peptide-encoding DNA abundance (4.5 h post-induction vs induction); higher = less antimicrobial activity (less host growth inhibition)
applied.conditions: time post-induction: 4.5 h; library: site-saturation at positions 5, 18, 19, 20
The entries below are paired with their reported shrunken log2 fold change.
// keep it numeric: no unit symbol after the value

Field shrunken log2 fold change (entry RRIRGRPPRLPRPRPRPWVAPRP ) reads -0.026

Field shrunken log2 fold change (entry RRIRKRPPRLPRPRPRPDPDPRP ) reads 0.431

Field shrunken log2 fold change (entry RRIRWRPPRLPRPRPRPHQIPRP ) reads -0.154

Field shrunken log2 fold change (entry RRIRERPPRLPRPRPRPAKNPRP ) reads -0.0998

Field shrunken log2 fold change (entry RRIRTRPPRLPRPRPRPHNWPRP ) reads 0.0661

Field shrunken log2 fold change (entry RRIRSRPPRLPRPRPRPQNMPRP ) reads -0.268

Field shrunken log2 fold change (entry RRIRSRPPRLPRPRPRPIENPRP ) reads -0.00961
